The origin of these recorded values is PubChem BioAssay (Tox21).

- experimental-details: qHTS assay to identify small molecule that activate the aryl hydrocarbon receptor (AhR) signaling pathway - cell viability counter screen (AID 743086); also: nearly all actives have a fitted effect of over 45% in size; also: potency is read from the fitted curve at half-maximal effect
- condition-info: HepG2-AhR-luc viability, CellTiter-Fluor, 24 h; series mostly up to 70.3 µM
Inconclusive results are not listed. Active and inactive are the calls of the source. Calls follow the shape of the dose curve; as a rule, active = well fitted cell-killing curve with a large enough effect in the repeat runs; inconclusive = weak or mixed curves, or effect the other way; inactive = flat fitted curve, though single readings scatter.
value-kind: Potency

[[record]]
smiles = "COc1ccc(-c2ccc3cc(C(=O)O)ccc3c2)cc1C12CC3CC(CC(C3)C1)C2"
value_kind = "Potency"
endpoint_result = "inactive"

[[record]]
smiles = "CC(C)CCCCCCCCCCCCCCC(=O)O"
value_kind = "Potency"
endpoint_result = "inactive"

[[record]]
smiles = "N/C(=N\\N=C\\c1ccc(Cl)cc1)N/N=C/c1ccc(Cl)cc1"
value_kind = "Potency"
endpoint_result = "inactive"

[[record]]
smiles = "Fc1ccc([C@@H]2CCNC[C@H]2COc2ccc3c(c2)OCO3)cc1"
value_kind = "Potency"
endpoint_result = "26.6 µM (active)"

[[record]]
smiles = "CCCCCCCCOc1ccccc1C(=O)Nc1ccc(C(=O)OCC[N+](C)(CC)CC)cc1"
value_kind = "Potency"
endpoint_result = "inactive"

[[record]]
smiles = "Clc1ccc2n[nH]nc2c1"
value_kind = "Potency"
endpoint_result = "inactive"

[[record]]
smiles = "Cc1cccc(S(=O)(=O)O)c1C"
value_kind = "Potency"
endpoint_result = "inactive"

[[record]]
smiles = "CCc1cc(Cc2cc(CC)c(N)c(CC)c2)cc(CC)c1N"
value_kind = "Potency"
endpoint_result = "inactive"

[[record]]
smiles = "CCCCN1C(=O)[C@@H]([C@H](O)C2CCCCC2)NC(=O)C12CCN(Cc1ccc(Oc3ccc(C(=O)O)cc3)cc1)CC2"
value_kind = "Potency"
endpoint_result = "8.63 µM (active)"

[[record]]
smiles = "O=C1CCCCCN1SSN1CCCCCC1=O"
value_kind = "Potency"
endpoint_result = "inactive"

[[record]]
smiles = "O=c1c(-c2ccccc2)c1-c1ccccc1"
value_kind = "Potency"
endpoint_result = "inactive"

[[record]]
smiles = "C1CCCC1"
value_kind = "Potency"
endpoint_result = "inactive"


###

- experimental-details: qHTS assay to identify small molecule antagonists of the androgen receptor (AR) signaling pathway using the MDA cell line in the presence of 0.5 nM R1881 - cell viability counter screen (AID 1259242); also: nearly all actives have a fitted effect of over 45% in size
- condition-info: MDA-kb2 viability, CellTiter-Fluor protease fluorescence, 16 h; series mostly up to 92.4 µM
- Excerpt: U.S. Tox21 Program National Center for Advancing Translational Sciences [NCATS] NIH Chemical Genomics Center [NCGC] U.S. Environmental Protection Agency [EPA] National Institutes of Environmental Health Sciences [NIEHS] National Toxicology Program [NTP] U.S. Food and Drug Administration [FDA] Tox21 Assay Overview: Androgen receptor (AR) is an important member of the nuclear receptor family. Its signaling plays a critical role in AR-dependent prostate cancer and other androgen related diseases. […]
Inconclusive results are not listed. Calls of active or inactive are those of the source. Calls follow the shape of the dose curve; as a rule, active = well fitted cell-killing curve with a large enough effect in the repeat runs; inconclusive = weak or mixed curves, or effect the other way; inactive = flat fitted curve, though single readings scatter.
Labels: active, inactive

[[record]]
compound = "CCCC(C)c1ccccc1O (stereo unspecified)"
assigned_category = "inactive"

[[record]]
compound = "C/C(=C(/OCCOc1ccc(Cl)cc1)c1ccc(Cl)cc1Cl)n1ccnc1"
assigned_category = "inactive"

[[record]]
compound = "N/C(=N\\N=C\\c1ccc(Cl)cc1)N/N=C/c1ccc(Cl)cc1"
assigned_category = "inactive"

[[record]]
compound = "O=C1C=CC(=O)N1"
assigned_category = "active"

[[record]]
compound = "CC[C@H](c1ccc(O)cc1)[C@@H](CC)c1ccc(O)cc1"
assigned_category = "inactive"

[[record]]
compound = "CCc1oc2ccccc2c1C(=O)c1cc(Br)c(O)c(Br)c1"
assigned_category = "inactive"

